Just for reference, patent US9096543B2 is where these values come from.

- experimental_details: Brain to plasma ratio (B:P) in mice
- Format: in vivo
- details: mouse, brain and plasma, 10 mg/kg po, 2 hours post-dose
measured_metric: Kp at 2 h

(1) O=C(/C=C\n1cnc(-c2cc(C(F)(F)F)cc(C(F)(F)F)c2)n1)NNC(=O)C(=O)N1CCOCC1 [Compound 12]
(2) O=C(/C=C\n1cnc(-c2cc(C(F)(F)F)cc(C(F)(F)F)c2)n1)NNC(=S)NC1CC1 [Compound 4]
(3) O=C(/C=C\n1cnc(-c2cc(C(F)(F)F)cc(C(F)(F)F)c2)n1)NNC(=O)c1cnccn1 [Compound 8]
(4) O=C(/C=C\n1cnc(-c2cc(C(F)(F)F)cc(C(F)(F)F)c2)n1)NNC(=O)CN1CCOCC1 [Compound 2]
Sort the entries above by Kp at 2 h, smallest first. Please write the labels in the order that was asked for. 2, 1, 4, 3
